The measurements presented in this section are drawn from the Human Domainome abundance scans (Beltran et al. 2025).

Below is a list of entries, each paired with its recorded abundance fitness value.
B1: Ankyrin-1, residues 1405 to 1484; numbered along this chain, P16157 (parent)
chain: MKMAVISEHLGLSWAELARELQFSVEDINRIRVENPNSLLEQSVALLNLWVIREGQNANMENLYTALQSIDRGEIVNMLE

# Variants of: B1
# MEASUREMENT_NOTES: abundance fitness (aPCA) (normalised: wild type 0, dead -1); higher = more abundant; growth selection in yeast, the domain comes from the species named
# STUDY_CONDITIONS: Homo sapiens
MEASURED_ENDPOINT: abundance fitness

MKMAVISEHLGLSWAELARELQFSVEDINRIRVENPNSLLEQSVAFLNLWVIREGQNANMENLYTALQSIDRGEIVNMLE [L46F] :: -0.204
MKMAVISEHLGLSWAELARELQFSVEDINRIRVHNPNSLLEQSVALLNLWVIREGQNANMENLYTALQSIDRGEIVNMLE [E34H] :: -0.453
MKMAVISEHLGLSWAELARELQFSVEDINRIRVENPNSLLEQSVALLNLWVIREGQNANMENLYQALQSIDRGEIVNMLE [T65Q] :: 0.016
MKMAVISEHLGLSWAELARELQFSVEDINRIRVENPNSLLEISVALLNLWVIREGQNANMENLYTALQSIDRGEIVNMLE [Q42I] :: -0.915
MKMAVISEHLGLSWAELARELQFSVEDINRIRVENPNSLAEQSVALLNLWVIREGQNANMENLYTALQSIDRGEIVNMLE [L40A] :: -0.11
MKMAVISEHLGLSWAELARELQFSVEDINRIRVEAPNSLLEQSVALLNLWVIREGQNANMENLYTALQSIDRGEIVNMLE [N35A] :: -0.304
MKMAVISEHLGLSWAELARELQFSVEDINRIRVENPNSLLEQSVALLNLWVIREGQNANMENLYTALQSIDRDEIVNMLE [G73D] :: -0.491
MKMAVISEHLGLSWAELARELQFSVEDINRIQVENPNSLLEQSVALLNLWVIREGQNANMENLYTALQSIDRGEIVNMLE [R32Q] :: -0.132
MKMAVISEHLGLSWAELARELQFPVEDINRIRVENPNSLLEQSVALLNLWVIREGQNANMENLYTALQSIDRGEIVNMLE [S24P] :: -0.209
MKMAVISEHLGLSWAELARELQFSVEDINRIRVENPNSLLEASVALLNLWVIREGQNANMENLYTALQSIDRGEIVNMLE [Q42A] :: -0.257
MKMAVISEHLGLSWAELARELQFSVEDDNRIRVENPNSLLEQSVALLNLWVIREGQNANMENLYTALQSIDRGEIVNMLE [I28D] :: -0.584
MKMAVISEHLGLSWAELARELQFSVEDINRIRVENPNSLLEQSVALLNLWVIRHGQNANMENLYTALQSIDRGEIVNMLE [E54H] :: -0.294
MKMAVISEHLGLSWAELARELQFSVEDINRIRVENPASLLEQSVALLNLWVIREGQNANMENLYTALQSIDRGEIVNMLE [N37A] :: -0.025
MKMAVISEHLGLSWAELARELQFSVEDINRIRVENPNSLLEQSVALLNLWVIREGQNAVMENLYTALQSIDRGEIVNMLE [N59V] :: -0.078
MKMAVISEHLGLSWAELARELQFSVEDINRIRVENPNSLLEQSVALLNLWVIREGQNANMENLYTALQSMDRGEIVNMLE [I70M] :: -0.651
MKMAVISEHLGLSWAELARELQFSVEDKNRIRVENPNSLLEQSVALLNLWVIREGQNANMENLYTALQSIDRGEIVNMLE [I28K] :: -0.686
MKMAVISEHLGLSWAELARELQFSVEDINRIRVENPNSLLEQSVALLNLWVIAEGQNANMENLYTALQSIDRGEIVNMLE [R53A] :: -0.555
MKMAVISEHLGLSWAELARELQFSVEDIERIRVENPNSLLEQSVALLNLWVIREGQNANMENLYTALQSIDRGEIVNMLE [N29E] :: -0.05
MKMAVISEHLGLSWAELARELQFSVEDINRIRVENPNSLLEQSVALLNLWVIRKGQNANMENLYTALQSIDRGEIVNMLE [E54K] :: -0.29
MKMAVISEHLGLSWAELARELQFSVEDINRIRVENPNSLLEQSVALLNLWVIREGQNANMENLYTALQSIDRGEIVHMLE [N77H] :: -0.175
MKMAVISEHLGLSWAELARELQFSVEDINRIRVENPNSFLEQSVALLNLWVIREGQNANMENLYTALQSIDRGEIVNMLE [L39F] :: -0.068
MKMAVISEHLGLSWAELARELQFSVEDINRIRVENPNSLLEQSVALLNLWVIREGQNANMENLYTALQSIDRGEIVNHLE [M78H] :: -0.158
MKMAVISEHLGLSWAELARELQFSVEDINRIRVENPNSLLEQSVALLNLWVIREGQNANSENLYTALQSIDRGEIVNMLE [M60S] :: -0.28
MKMAVISEHLGLSWAELARELQFSVEDINRIRVENPNSLLEQSVALLHLWVIREGQNANMENLYTALQSIDRGEIVNMLE [N48H] :: -0.042
MKMAVISEHLGLSWAELARELQFSVEDINRIRVENPNSLLEQSVALLNLWVIREGQNANMENIYTALQSIDRGEIVNMLE [L63I] :: 0.037
MKMAVISEHLGLSWAELARELQFSVEDINRIRVENPNSLLEQSVALLNLWVIREGQNAQMENLYTALQSIDRGEIVNMLE [N59Q] :: -0.031
MKMAVISEHLGLSWAELARELQFSVEDINRIRVENPNSLLEQGVALLNLWVIREGQNANMENLYTALQSIDRGEIVNMLE [S43G] :: 0
MKMAVISEHLGLSWAELARELQFYVEDINRIRVENPNSLLEQSVALLNLWVIREGQNANMENLYTALQSIDRGEIVNMLE [S24Y] :: -0.856
MKMAVISEHLGLSWAELARELQFSVEDINRIRVENPNSLLEQSVALLNLWVIREGQNANMENLYTALQSIDRGEIVRMLE [N77R] :: 0.08
